Species: Rattus norvegicus
Experiment: DrugMatrix - Regimen: Daily Repeat
Assay type: toxicity, organism-based, Sprague-Dawley
Set-up: regimen Daily Repeat, gender Male, age 6-8 weeks
Settings: in vivo, iv, 0 mg/kg, 72 h, tissue Blood, dose level Control, time 3 day, vehicle 100 % SALINE
MEASUREMENT NAME: LEUKOCYTE COUNT (x10E3/uL)
Kindly answer with a numeric value in x10E3/uL, unit omitted.

**Query** Give the reported value of LEUKOCYTE COUNT for this record: COc1cccc2c1C(=O)c1c(O)c3c(c(O)c1C2=O)C[C@@](O)(C(C)=O)C[C@@H]3O[C@H]1C[C@H](N)[C@H](O)[C@H](C)O1 [DAUNORUBICIN]
**Result** 11.08

**Query** Give the reported value of LEUKOCYTE COUNT for this record: O=c1[nH]c(=O)n([C@H]2C[C@H](O)[C@@H](CO)O2)cc1F [FLOXURIDINE]
**Result** 12.97

**Query** Give the reported value of LEUKOCYTE COUNT for this record: C[N+](C)(C)CCOC(=O)CCC(=O)OCC[N+](C)(C)C.[Cl-].[Cl-] [SUCCINYLCHOLINE CHLORIDE]
**Result** 18.18

**Query** Give the reported value of LEUKOCYTE COUNT for this record: O=C(O)P(=O)(O)O [FOSCARNET]
**Result** 14.97

**Query** Give the reported value of LEUKOCYTE COUNT for this record: N=C(N)c1ccc(OCCCCCOc2ccc(C(=N)N)cc2)cc1 [PENTAMIDINE]
**Result** 18.18

---

Species: Rattus norvegicus
Assay: DrugMatrix - Regimen: Daily Repeat
Format: toxicity, organism-based, Sprague-Dawley
Set-up: regimen Daily Repeat, gender Male, age 6-8 weeks
Details: in vivo, po, 0 mg/kg, 120 h, tissue Plasma, route oral GAVAGE, dose level Control, time 5 day, […]
MEASUREMENT NAME: TOTAL BILIRUBIN (mg/dL)
Kindly answer with a numeric value in mg/dL, unit omitted.

In [3]: df
Out[3]:
                                   compound  measured_result
0                     CC(=O)Oc1ccccc1C(=O)O              0.2
1  CCCCC(=O)N(Cc1ccc(-c2ccccc2-c2nnn[nH]2)cc1)[C@H](C(=O)O)C(C)C             0.17
2  CCc1ccc(CCOc2ccc(CC3SC(=O)NC3=O)cc2)nc1 (configuration not stated)              0.1

**Query** Give the reported value of TOTAL BILIRUBIN for this record: CC(C)c1c(C(=O)Nc2ccccc2)c(-c2ccccc2)c(-c2ccc(F)cc2)n1CC[C@@H](O)C[C@@H](O)CC(=O)O
**Result** 0.1

**Query** Give the reported value of TOTAL BILIRUBIN for this record: c1ccoc1
**Result** 0.38

**Query** Give the reported value of TOTAL BILIRUBIN for this record: CS(=O)(=O)Nc1ccc([N+](=O)[O-])cc1Oc1ccccc1 [NIMESULIDE]
**Result** 0.2

**Query** Give the reported value of TOTAL BILIRUBIN for this record: O=c1c(-c2ccc(O)cc2)coc2cc(O)cc(O)c12
**Result** 0.1

---

CHLORIDE values, listed per item
Organism: Rattus norvegicus
Experiment: DrugMatrix - Regimen: Daily Repeat
Type: toxicity, organism-based, Sprague-Dawley
Set-up: regimen Daily Repeat, gender Male, age 6-8 weeks
Conditions: in vivo, po, 0 mg/kg, 120 h, tissue Plasma, route oral GAVAGE, dose level Control, time 5 day, […]
Kindly answer with a numeric value in MEQ/L, unit omitted.

Illustrative cases are given below, each with its answer.
>>> df
                                   compound  measurement_name  measured_result
0  CC(C)c1c(C(=O)Nc2ccccc2)c(-c2ccccc2)c(-c2ccc(F)cc2)n1CC[C@@H](O)C[C@@H](O)CC(=O)O          CHLORIDE               97
1      O=c1c(-c2ccc(O)cc2)coc2cc(O)cc(O)c12          CHLORIDE               97
2  CCCCC(=O)N(Cc1ccc(-c2ccccc2-c2nnn[nH]2)cc1)[C@H](C(=O)O)C(C)C          CHLORIDE            98.67
3  CS(=O)(=O)Nc1ccc([N+](=O)[O-])cc1Oc1ccccc1 [NIMESULIDE]          CHLORIDE           103.67

**Query** Give the reported value of CHLORIDE for this record: CCc1ccc(CCOc2ccc(CC3SC(=O)NC3=O)cc2)nc1 (configuration not stated)
**Result** 100.83

**Query** Give the reported value of CHLORIDE for this record: CC(=O)Oc1ccccc1C(=O)O
**Result** 98.5

**Query** Give the reported value of CHLORIDE for this record: c1ccoc1
**Result** 104.5

---

POTASSIUM values, listed per item
Species: Rattus norvegicus
Experiment: DrugMatrix - Regimen: Daily Repeat
Format: toxicity, organism-based, Sprague-Dawley
Design: regimen Daily Repeat, gender Male, age 6-8 weeks
Conditions: in vivo, iv, 0 mg/kg, 120 h, tissue Plasma, dose level Control, time 5 day, vehicle 100 % SALINE

Illustrative cases are given below, each with its answer.
>>> df
                                   compound  measured_result
0  COc1cccc2c1C(=O)c1c(O)c3c(c(O)c1C2=O)C[C@@](O)(C(C)=O)C[C@@H]3O[C@H]1C[C@H](N)[C@H](O)[C@H](C)O1       5.51 MEQ/L
1                           O=C(O)P(=O)(O)O       6.35 MEQ/L
2  C[N+](C)(C)CCOC(=O)CCC(=O)OCC[N+](C)(C)C.[Cl-].[Cl-] [SUCCINYLCHOLINE CHLORIDE]       6.06 MEQ/L
3  O=c1[nH]c(=O)n([C@H]2C[C@H](O)[C@@H](CO)O2)cc1F       6.12 MEQ/L

**Query** Give the reported value of POTASSIUM for this record: N=C(N)c1ccc(OCCCCCOc2ccc(C(=N)N)cc2)cc1
**Result** 6.06 MEQ/L

---

Species: Rattus norvegicus
Test: DrugMatrix - Regimen: Daily Repeat
Format: toxicity, organism-based, Sprague-Dawley
Parameters: regimen Daily Repeat, gender Male, age 6-8 weeks
Conditions: in vivo, po, 0 mg/kg, 72 h, tissue Blood, route oral GAVAGE, dose level Control, time 3 day, […]
MEASUREMENT NAME: LEUKOCYTE COUNT (x10E3/uL)
Kindly answer with a numeric value in x10E3/uL, unit omitted.

Illustrative cases are given below, each with its answer.
In [3]: df
Out[3]:
                                   compound  measured_result
0      ClC(Cl)(Cl)Cl [CARBON TETRACHLORIDE]            10.68
1      O=c1c(-c2ccc(O)cc2)coc2cc(O)cc(O)c12            11.72
2  CC(C)c1c(C(=O)Nc2ccccc2)c(-c2ccccc2)c(-c2ccc(F)cc2)n1CC[C@@H](O)C[C@@H](O)CC(=O)O            11.72
3           Cc1ccc(C)c(OCCCC(C)(C)C(=O)O)c1             7.32

Next, consider the following compound.
**Query** Give the reported value of LEUKOCYTE COUNT for this record: CCc1ccc(CCOc2ccc(CC3SC(=O)NC3=O)cc2)nc1 (stereo not given)
**Result** 12.37

---

Organism: Rattus norvegicus
Assay: DrugMatrix - Regimen: Daily Repeat
Assay type: toxicity, organism-based, Sprague-Dawley
Parameters: regimen Daily Repeat, gender Male, age 6-8 weeks
Details: in vivo, po, 0 mg/kg, 120 h, tissue Plasma, route oral GAVAGE, dose level Control, time 5 day, vehicle 100 % WATER
MEASUREMENT NAME: GLUCOSE
Provide a numeric answer, followed by its unit.

Illustrative cases are given below, each with its answer.
                                   compound  measured_result
0        NC12CC3CC(CC(C3)C1)C2 [AMANTADINE]      152.5 mg/dL
1  C#Cc1cccc(Nc2ncnc3cc(OCCOC)c(OCCOC)cc23)c1 [ERLOTINIB]      156.5 mg/dL
2              NC(=O)c1cccnc1 [NIACINAMIDE]     161.67 mg/dL
3  CNC1=Nc2ccc(Cl)cc2C(c2ccccc2)=[N+]([O-])C1 [CHLORDIAZEPOXIDE]        146 mg/dL
4  CCN(CC)CCNC(=O)c1ccc(N)cc1 [PROCAINAMIDE]        201 mg/dL

Next, consider the following compound.
**Query** Give the reported value of GLUCOSE for this record: CCCC(C)C1(CC)C(=O)NC(=O)NC1=O (stereo unspecified) [PENTOBARBITAL]
**Result** 137 mg/dL
